B1: Azoarcus group I ribozyme (parent)
chain: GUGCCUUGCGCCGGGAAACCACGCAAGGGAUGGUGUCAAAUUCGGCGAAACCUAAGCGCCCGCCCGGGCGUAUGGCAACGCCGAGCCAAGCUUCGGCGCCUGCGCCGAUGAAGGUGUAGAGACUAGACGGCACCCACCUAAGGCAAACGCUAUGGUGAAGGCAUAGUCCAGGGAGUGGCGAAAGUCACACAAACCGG

Variants of: B1
assay_text: reverse-splicing fitness (ratio to wild type); higher = more active; in vitro selection; Mg2+ level not given
endpoint_name: reverse-splicing fitness
Would you mind answering with just the numeric figure?

Take a look at these entries with their results.
1) C82A A111G A145C C150U C169U :: 0.0104
2) C82A A145U C150G C169A :: 0.00902

Record C82U A111U A120U A145C C150G U176C . Reported reverse-splicing fitness: 0.00408

// C82A A111G A120G A145C C150G C169A U176G : reverse-splicing fitness value = 0.00564

Query A120U A145G U176G yields reverse-splicing fitness of 0.342

Form: variant = C82G A111G A120G A145C C150U C169G U176C ; reverse-splicing fitness = 0.0155

Noted for C82G A120C A145C C150U C169A U176G : its reverse-splicing fitness reads 0.00525

Record summary for C82U A111U A120G A145C C169A : reported reverse-splicing fitness = 0.007
